molecular target: Plasma kallikrein (Homo sapiens, UniProt P03952); assay: Inhibition of plasma kallikrein (unknown origin)
Sequence (P03952 20-390 limits assumed): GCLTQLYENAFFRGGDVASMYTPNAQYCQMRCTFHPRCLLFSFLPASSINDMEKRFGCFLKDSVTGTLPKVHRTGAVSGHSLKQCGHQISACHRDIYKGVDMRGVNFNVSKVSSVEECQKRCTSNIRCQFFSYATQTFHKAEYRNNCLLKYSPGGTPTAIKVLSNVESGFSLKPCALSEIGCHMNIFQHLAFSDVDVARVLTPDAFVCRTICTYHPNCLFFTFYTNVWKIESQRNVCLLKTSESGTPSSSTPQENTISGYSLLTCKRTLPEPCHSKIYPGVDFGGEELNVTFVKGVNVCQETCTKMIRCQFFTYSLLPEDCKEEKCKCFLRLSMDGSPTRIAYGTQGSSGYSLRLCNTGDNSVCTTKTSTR
Sequence (P03952 391-638 limits assumed): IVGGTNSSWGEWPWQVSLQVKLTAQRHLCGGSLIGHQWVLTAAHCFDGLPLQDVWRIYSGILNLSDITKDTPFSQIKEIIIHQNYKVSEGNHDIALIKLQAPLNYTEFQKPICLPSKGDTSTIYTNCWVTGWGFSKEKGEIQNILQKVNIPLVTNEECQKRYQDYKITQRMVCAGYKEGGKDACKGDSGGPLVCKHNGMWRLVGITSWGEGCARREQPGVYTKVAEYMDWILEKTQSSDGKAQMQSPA
Observable: IC50 (nM)

INSERT INTO measurements (compound, test_system, recorded_value) VALUES
  ('Nc1nn(Cc2ccc(Cn3ccccc3=O)cc2)cc1C(=O)N[C@H]1CCN(c2cccc(Cl)c2)C1', 'Plasma kallikrein (Homo sapiens, UniProt P03952)', 4.8),
  ('COC(=O)c1ccc(NC(=O)[C@H](CCCCNC(=N)N)NC(=O)C2CCC(CN)CC2)cc1 (stereo not given in full)', 'Plasma kallikrein (Homo sapiens, UniProt P03952)', 18000),
  ('COC(=O)c1ccc(NC(=O)[C@H](CCCCN)NC(=O)C2CCC(CN)CC2)cc1 (stereo not given in full)', 'Plasma kallikrein (Homo sapiens, UniProt P03952)', 50000),
  ('NCC1CCC(C(=O)N[C@@H](Cc2ccccc2)C(=O)Nc2ccc(CC(=O)O)cc2)CC1 (stereo not given in full)', 'Plasma kallikrein (Homo sapiens, UniProt P03952)', 1300),
  ('Cc1cc(C)n(Cc2ccc(Cn3cc(C(=O)NCc4c(C)cc(N)nc4C)nn3)cc2)n1', 'Plasma kallikrein (Homo sapiens, UniProt P03952)', 2.9),
  ('CC(=O)c1ccc(NC(=O)C(CCCNC(=N)NS(=O)(=O)c2c(C)cc(C)cc2C)NC(=O)C2CCC(CN)CC2)cc1 (stereo not given)', 'Plasma kallikrein (Homo sapiens, UniProt P03952)', 2000),
  ('CC(=O)c1ccc(NC(=O)[C@H](Cc2ccccc2)NC(=O)C2CCC(CN)CC2)cc1 (stereo not given in full)', 'Plasma kallikrein (Homo sapiens, UniProt P03952)', 850),
  ('CC(C)COC(=O)c1ccc(NC(=O)[C@H](CCCNC(=N)N)NC(=O)C2CCC(CN)CC2)cc1 (stereo not given in full)', 'Plasma kallikrein (Homo sapiens, UniProt P03952)', 15000);

a. N=C(N)c1ccc(CNC(=O)c2cnn(Cc3ccccc3)c2)cc1
b. N=C(N)NCCCC[C@H](NC(=O)C1CCC(CN)CC1)C(=O)Nc1ccc(C(=O)O)cc1 (stereo not given in full)
Incoming: Just curious, which one has the larger IC50 reading, a or b ? Write the label of whichever entry you select.
Outgoing: b

---

Reported pIC50 values for the following compounds.
target: Plasma kallikrein (Homo sapiens, UniProt P03952); test: Inhibition of human plasma kallikrein using H-D-Pro-Phe-Arg-p-nitroaniline as substrate assessed as inhibition constant
pIC50: −log10 of the molar value.

Please review the entries below; each comes with its answer.
INSERT INTO assay_data (compound, observable, recorded_value) VALUES
  ('NC(CCC1CC1)(c1ccc(F)c(NC(=O)[C@H]2CC(F)(F)CN2C(=O)Nc2ccc(Cl)cn2)c1)c1ccccn1 (stereo partly drawn)', 'pIC50', '> 7.30'),
  ('NCc1cccc(-n2nc(C(F)(F)F)cc2C(=O)Nc2cc(C(OCC3CC3)c3ccccc3O)ccc2F)c1 (stereo not drawn)', 'pIC50', 7.00),
  ('CCCOC(c1ccccc1)c1cccc(NC(=O)c2cc(C(F)(F)F)nn2-c2cccc(CN)c2)c1 (stereo not drawn)', 'pIC50', '< 4.30'),
  ('NC(CCC1CC1)(c1ccc(F)c(NC(=O)[C@H]2C[C@@H](O)CN2C(=O)Nc2ccc(Cl)cc2)c1)c1ccccn1 (stereo partly drawn)', 'pIC50', '> 7.30'),
  ('CCO[C@@H]1C[C@H](C(=O)Nc2cc(C(N)(CCC3CC3)c3ccccn3)ccc2F)N(C(=O)Nc2ccc(Cl)cc2)C1 (stereo partly drawn)', 'pIC50', '> 7.30');

Record for N=C(N)c1cccc(-n2nc(C(F)(F)F)cc2C(=O)Nc2cc(C(NCC3CC3)c3ccccc3)ccc2F)c1 (stereo not drawn) under target or system Plasma kallikrein (Homo sapiens, UniProt P03952): pIC50 reported as 7.00

Record for NCc1cccc(-n2nc(C(N)=O)cc2C(=O)Nc2cc(C(NCC3CC3)c3ccccc3)ccc2F)c1 (stereo not drawn) under target or system Plasma kallikrein (Homo sapiens, UniProt P03952): pIC50 reported as 7.00

Record for NC(CCC1CC1)(c1ccc(F)c(NC(=O)[C@H]2C[C@](O)(c3ccccc3)CN2C(=O)Nc2ccc(Cl)cc2)c1)c1ccccn1 (stereo partly drawn) under target or system Plasma kallikrein (Homo sapiens, UniProt P03952): pIC50 reported as > 7.30

---

molecular target: Plasma kallikrein (Homo sapiens); assay: Inhibition of human plasma kallikrein using H-DPro-Phe-Arg-AFC as substrate
pIC50: −log10 of the molar value.
Observable: pIC50

INSERT INTO measurements (molecular_string, test_system, recorded_value) VALUES
  ('CCOc1ccc(C[C@@H](NC(=O)c2sccc2C)C(=O)N[C@@H](Cc2ccccc2)C(=O)NCc2ccc(CN)cc2)cc1', 'Plasma kallikrein (Homo sapiens)', 8.00);

1. CCOc1ccc(C[C@@H](NC(=O)c2ccccc2)C(=O)N[C@H](C(=O)NCc2ccc(CN)cc2)[C@H](O)c2ccccc2)cc1
2. COCc1nn(Cc2ccc(Cn3cccn3)cc2)cc1C(=O)NCc1ccc2c(N)nccc2c1C
3. COCc1nn(Cc2ccc(Cn3cc(C)cn3)cc2)cc1C(=O)NCc1cnc2[nH]cc(Cl)c2c1
Incoming: Arrange by pIC50, high to low. Form entry: labels listed in requested order.
Outgoing: 2, 3, 1

---

biological target: Coagulation factor X (Homo sapiens)
Sequence (P00742 41-179 limits assumed): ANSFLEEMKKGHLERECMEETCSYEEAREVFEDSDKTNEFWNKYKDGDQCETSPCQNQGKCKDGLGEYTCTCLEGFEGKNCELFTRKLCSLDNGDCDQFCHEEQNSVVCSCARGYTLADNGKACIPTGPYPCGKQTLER
Sequence (P00742 235-488 limits assumed): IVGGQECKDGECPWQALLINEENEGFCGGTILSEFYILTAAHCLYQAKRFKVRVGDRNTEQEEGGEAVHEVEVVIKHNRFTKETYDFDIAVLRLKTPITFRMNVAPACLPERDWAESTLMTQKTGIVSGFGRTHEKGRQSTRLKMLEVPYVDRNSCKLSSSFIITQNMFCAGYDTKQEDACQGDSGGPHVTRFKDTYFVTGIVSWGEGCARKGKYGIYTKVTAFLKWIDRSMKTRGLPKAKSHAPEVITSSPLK
Observable: IC50

Record N=C(N)c1ccc(CNC(=O)c2cnn(Cc3ccccc3)c2)cc1 . Reported IC50: > 10 µM

---

target: Prothrombin (Homo sapiens, UniProt P00734); assay: Inhibition of human thrombin
Observable: IC50

Record COc1ccnc(CNC(=O)c2cn(Cc3ccc(Cn4ccccc4=O)cc3)nc2C(F)(F)F)c1F . Reported IC50: > 40 µM

---

molecular target: Plasma kallikrein (Homo sapiens); experiment: Inhibition of human plasma kallikrein incubated for 1 hrs
Observable: IC50 (nM)

INSERT INTO results (molecular_string, recorded_value) VALUES
  ('Cc1nc(N)cc2c1CNC(=O)c1cnn(c1)Cc1ccc(Cn3cccn3)cc1OCCC/C=C\CCO2', 2);

1. Cc1cnn(Cc2ccc(Cn3cc(C(=O)NCc4cnc5[nH]cc(Cl)c5c4)c(C#N)n3)cc2)c1
2. Cc1cc(N)nc(C)c1CNC(=O)c1cnn(Cc2ccc(Cn3cccn3)cc2)c1
Incoming: Just curious, which one has the larger IC50 reading, 1 or 2 ? Write the label of whichever entry you select.
Outgoing: 2

---

target: Coagulation factor XI (Homo sapiens); assay: Inhibition of human fXIa
Sequence (P03951 19-387 limits assumed): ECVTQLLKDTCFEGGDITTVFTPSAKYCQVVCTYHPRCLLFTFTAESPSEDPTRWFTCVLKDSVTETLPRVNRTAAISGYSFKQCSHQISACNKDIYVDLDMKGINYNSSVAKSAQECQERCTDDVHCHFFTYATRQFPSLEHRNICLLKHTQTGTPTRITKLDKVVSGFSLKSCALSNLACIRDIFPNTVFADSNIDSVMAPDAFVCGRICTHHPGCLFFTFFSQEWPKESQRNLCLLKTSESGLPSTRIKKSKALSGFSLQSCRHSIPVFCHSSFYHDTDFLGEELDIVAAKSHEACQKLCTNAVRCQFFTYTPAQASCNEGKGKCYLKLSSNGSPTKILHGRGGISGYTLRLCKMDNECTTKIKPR
Sequence (P03951 388-625 limits assumed): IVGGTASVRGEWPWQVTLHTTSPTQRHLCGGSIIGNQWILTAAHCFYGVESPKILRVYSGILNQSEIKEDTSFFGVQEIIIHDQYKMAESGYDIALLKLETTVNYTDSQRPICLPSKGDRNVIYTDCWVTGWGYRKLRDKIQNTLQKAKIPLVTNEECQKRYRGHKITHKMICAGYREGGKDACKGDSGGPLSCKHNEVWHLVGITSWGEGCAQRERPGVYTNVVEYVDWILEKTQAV
pIC50: −log10 of the molar value.
Observable: pIC50

Record for Cc1cc(C)n(Cc2ccc(Cn3cc(C(=O)NCc4c(C)cc(N)nc4C)nn3)cc2)n1 under target or system Coagulation factor XI (Homo sapiens): pIC50 reported as < 5.00

---

target: Kallikrein-1 (Homo sapiens, UniProt P06870); experiment: Inhibition of human KLK1 using H-DVal-Leu-Arg-AFC as substrate
Sequence (P06870 whole entry): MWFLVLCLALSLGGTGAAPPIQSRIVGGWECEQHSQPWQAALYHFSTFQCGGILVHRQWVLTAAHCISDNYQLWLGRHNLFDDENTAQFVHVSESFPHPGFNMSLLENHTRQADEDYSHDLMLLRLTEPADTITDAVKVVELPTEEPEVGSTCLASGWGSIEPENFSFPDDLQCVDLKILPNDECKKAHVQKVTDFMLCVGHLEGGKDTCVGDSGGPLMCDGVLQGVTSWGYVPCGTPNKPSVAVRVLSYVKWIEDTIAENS
Observable: IC50 (µM)
Only the number, expressed in µM, is required.

Record for CCOc1ccc(C[C@@H](NC(=O)c2ccccc2)C(=O)N[C@H](C(=O)NCc2ccc(CN)cc2)[C@H](O)c2ccccc2)cc1 under target or system Kallikrein-1 (Homo sapiens, UniProt P06870): IC50 reported as 7.2

---

biological target: Plasminogen (Homo sapiens); experiment: Inhibition of human plasmin
Sequence (P00747 97-580 limits assumed): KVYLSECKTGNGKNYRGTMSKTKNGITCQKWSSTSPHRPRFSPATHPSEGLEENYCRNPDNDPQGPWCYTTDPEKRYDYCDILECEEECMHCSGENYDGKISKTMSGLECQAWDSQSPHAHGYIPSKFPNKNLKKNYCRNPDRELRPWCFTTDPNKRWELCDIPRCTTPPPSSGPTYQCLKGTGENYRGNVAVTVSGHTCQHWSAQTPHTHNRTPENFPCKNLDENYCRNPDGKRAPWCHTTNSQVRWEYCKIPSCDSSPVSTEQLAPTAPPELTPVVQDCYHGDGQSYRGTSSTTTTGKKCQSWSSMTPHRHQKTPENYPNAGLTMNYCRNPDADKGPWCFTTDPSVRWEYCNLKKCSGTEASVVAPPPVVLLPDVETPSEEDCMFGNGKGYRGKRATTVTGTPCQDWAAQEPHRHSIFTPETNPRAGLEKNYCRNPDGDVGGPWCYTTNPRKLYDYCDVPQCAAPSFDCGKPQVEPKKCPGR
Sequence (P00747 581-810 limits assumed): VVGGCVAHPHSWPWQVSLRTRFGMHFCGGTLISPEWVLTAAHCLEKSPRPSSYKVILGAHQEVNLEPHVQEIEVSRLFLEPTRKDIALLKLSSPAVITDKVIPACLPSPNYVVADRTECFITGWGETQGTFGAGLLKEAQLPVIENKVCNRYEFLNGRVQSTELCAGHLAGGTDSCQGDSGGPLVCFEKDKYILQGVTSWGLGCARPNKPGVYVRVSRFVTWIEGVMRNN
Observable: IC50

Record COc1ccnc(CNC(=O)c2cn(Cc3ccc(Cn4ccccc4=O)cc3)nc2C(F)(F)F)c1F . Reported IC50: > 40 µM

---

molecular target: Urokinase-type plasminogen activator (Homo sapiens, UniProt P00749); experiment: Inhibition of Urokinase (unknown origin)
Observable: IC50 (µM)

A. CC(=O)c1ccc(NC(=O)[C@H](Cc2ccccc2)NC(=O)C2CCC(CN)CC2)cc1 (some centres not stated)
B. NCC1CCC(C(=O)N[C@@H](Cc2ccccc2)C(=O)Nc2ccc(CC(=O)O)cc2)CC1 (some centres not stated)
Incoming: Just curious, which one has the larger IC50 reading, A or B ? Write the label of whichever entry you select.
Outgoing: B

---

biological target: Kallikrein-1 (Homo sapiens, UniProt P06870); experiment: Inhibition of human KLK1
Observable: IC50

Record Cc1cc(C)n(Cc2ccc(Cn3cc(C(=O)NCc4c(C)cc(N)nc4C)nn3)cc2)n1 . Reported IC50: > 40 µM

---

biological target: Prothrombin (Homo sapiens, UniProt P00734); test: Inhibition of human thrombin by fluorescence based analysis
pIC50: −log10 of the molar value.
Observable: pIC50

Record CCOc1ccc(C[C@@H](NC(=O)c2ccccc2)C(=O)N[C@@H](Cc2ccccc2)C(=O)NCc2ccc(CN)cc2)cc1 . Reported pIC50: < 5.00

---

biological target: Plasma kallikrein (Homo sapiens, UniProt P03952); assay: Inhibition of human plasma kallikrein using H-D-Pro-Phe-Arg-p-nitroaniline as substrate assessed as inhibition constant
pIC50: −log10 of the molar value.
Reported pIC50 values for the following molecules.

INSERT INTO assay_data (molecule, recorded_value) VALUES
  ('Nc1nccc2ccc(-n3nc(C(F)(F)F)cc3C(=O)Nc3cc(C(NCC4CC4)c4ccccc4)ccc3F)cc12 (stereo unspecified)', 7.00);

Record CO[C@@H]1C[C@H](C(=O)Nc2cc(C(N)(CCC3CC3)c3ccccn3)ccc2F)N(C(=O)Nc2ccc(Cl)cn2)C1 (stereo partly specified) . Reported pIC50: > 7.30
